The reported numbers originate from PubChem BioAssay (EPA / NIEHS).

- Experimental System: Peroxisome proliferator-activated receptor gamma (Homo sapiens) (UniProt P37231)
- Sequence (P37231 whole entry, looked up): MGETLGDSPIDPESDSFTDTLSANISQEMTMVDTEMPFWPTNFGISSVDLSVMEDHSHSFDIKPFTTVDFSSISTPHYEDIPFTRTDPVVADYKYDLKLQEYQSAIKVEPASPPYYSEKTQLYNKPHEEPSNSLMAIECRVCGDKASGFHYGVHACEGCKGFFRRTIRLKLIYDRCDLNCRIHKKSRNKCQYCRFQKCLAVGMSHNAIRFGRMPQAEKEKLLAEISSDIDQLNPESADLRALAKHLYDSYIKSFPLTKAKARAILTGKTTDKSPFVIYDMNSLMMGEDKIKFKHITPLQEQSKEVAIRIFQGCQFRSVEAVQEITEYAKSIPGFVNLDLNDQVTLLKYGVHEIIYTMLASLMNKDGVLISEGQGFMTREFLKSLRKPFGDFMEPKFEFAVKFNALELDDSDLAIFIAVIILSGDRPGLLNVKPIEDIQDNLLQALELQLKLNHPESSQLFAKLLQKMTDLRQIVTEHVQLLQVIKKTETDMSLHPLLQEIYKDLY
- Test Method Notes: ATG_PPARg_TRANS: Attagene TRANS-FACTORIAL HepG2 Assay for human Peroxisome Proliferator-activated Receptor-gamma (PPARg) (AID 2283007)
Records with an inconclusive call do not appear. Activity calls are given as the source filed them. Rule for the calls: active = hit-call score of the fitted dose curve at least 0.9, where 1 is the maximum; inconclusive = response in the unintended direction; inactive = score below 0.9.
Response enum: class 1 = active, class 0 = inactive

What did the test return for Brc1nc2ccccc2s1 ?
class 1

Check the results log: what was the call for CCN(CC)c1ccc(C=O)cc1 ?
class 0

====

- Test Method Notes: ATG_FoxO_CIS: Attagene CIS-FACTORIAL HepG2 Assay for human Forkhead box O (FoxO) (AID 2282943)
- Applied Conditions: HepG2 Attagene cis-reporter, FoxO element, mRNA; actives raise or lower the signal
- Procedure: ATG_CIS is a cell-based, multiplexed-readout assay that uses HepG2, a human liver cell line, with measurements taken at 24 hours after chemical dosing in a 24-well plate.ATG_FoxO_CIS is one of 52 assay component(s) measured or calculated from the ATG_CIS assay. […] This assay endpoint, ATG_FoxO_CIS, was analyzed with bidirectional fitting relative to DMSO as the negative control and baseline of activity. […]
Activity calls are given as the source filed them. The calls were made as follows: active = hit-call score of the fitted dose curve at least 0.9, where 1 is the maximum; inactive = score below 0.9.
The reply should name one outcome from active, inactive

Please review the following examples before continuing.
Given FC(F)(F)C(F)(F)C(F)(F)C(F)(F)C(F)(F)C(F)(F)CC[Si](Cl)(Cl)Cl , state the outcome it received in this test.
inactive

// outcome(item) with item = O=C1c2c(O)ccc(Nc3ccc(CCO)cc3)c2C(=O)c2c([N+](=O)[O-])ccc(O)c21
inactive

Assay result, entry C[C@]12CC[C@H]3C(=CCc4cc(O)ccc43)[C@@H]1CCC2=O — outcome?
inactive

Hey, what did the test say about CCCCCCCCCc1ccc(OCCO)cc1 ?
active

Entry O=C1C=CC(=O)N1c1ccc(Cc2ccc(N3C(=O)C=CC3=O)cc2)cc1 : call = ?
inactive

***
Name the outcome recorded for O=C(Cl)C(F)(F)C(F)(F)C(F)(F)C(F)(F)C(F)(F)C(F)(F)F in the assay.
inactive

Give the logged outcome of this assay for the following compound: CC(C)OC(=O)COc1ccc(Cl)cc1Cl
inactive

What classification did Brc1nc2ccccc2s1 end up with in this test?
inactive

// return assay outcome for CCCCCCCCCCCCC[N+](C)(C)Cc1ccccc1
inactive

For N#CCCOCCC#N , which call appears in the assay record?
inactive

Which outcome did this test record for the compound Cc1ccc2c(c1)OCC(=O)CO2 ?
inactive

What was the test verdict on O=C=NCc1cccc(CN=C=O)c1 ?
inactive

Given Nc1cccnc1N , state the outcome it received in this test.
inactive

// param item: CO[Si](CCCOCC1CO1)(OC)OC (stereo not drawn) ; yields the recorded call
inactive

// param item: O=C(O)CCC(F)(F)C(F)(F)C(F)(F)C(F)(F)C(F)(F)C(F)(F)C(F)(F)F ; yields the recorded call
inactive

Any idea what this test logged for O=C(c1ccccc1)c1ccc(Cl)cc1 ?
inactive

Status in this test for CC(C)(C)C(=O)C1C(=O)c2ccccc2C1=O ?
inactive

Returns: the outcome recorded for Brc1ccccn1 in this assay.
inactive

====

- Read-out: Plasminogen activator inhibitor-1 (PAI1), SERPINE1 (gene 5054)
- Test Method Notes: BSK_hDFCGF_PAI1: BioMAP Diversity Plus: hDFCGF Assay for Plasminogen activator inhibitor-1 (PAI1) Biomarker Activity (AID 2283066)
- Applied Conditions: primary human foreskin fibroblasts; actives raise or lower the signal
Calls of active or inactive are those of the source. The calls were made as follows: active = hit-call score of the fitted dose curve at least 0.9, where 1 is the maximum; inactive = score below 0.9.
Result category, one only: Yes = active, No = inactive

As a guide, the following entries are already answered.
For CNS(=O)(=O)C(F)(F)C(F)(F)C(F)(F)C(F)(F)C(F)(F)C(F)(F)C(F)(F)C(F)(F)F , which call appears in the assay record?
No

Record request — test call for OCCCCC(F)(F)C(F)(F)C(F)(F)C(F)(F)F
No

Any idea what this test logged for FC(F)(F)C(F)(F)C(F)(F)C(F)(F)C(F)(F)C(F)(F)C(F)(F)CCI ?
No

Record request — test call for Nc1cc([N+](=O)[O-])cc(Cl)c1O
No

Test call for this compound, please: O=C(O)C(F)(F)C(F)(F)C(F)(F)OC(F)(F)F
No

Hello, I am checking results. What call was entered for Cc1cc(O)c(C(C)(C)C)cc1C(C)(C)C ?
Yes

Any idea what this test logged for O=C(O)C(F)(F)C(F)(F)C(F)(F)C(F)(F)C(F)(F)C(F)(F)C(F)F ?
No

Dear all, I need the recorded test outcome for C[Si](Cl)(Cl)CCC(F)(F)C(F)(F)C(F)(F)C(F)(F)C(F)(F)C(F)(F)F , thank you.
No

Now look at this one.
Name the outcome recorded for FC(F)(F)C(F)(F)C(F)(F)C(F)(F)C(F)(F)C(F)(F)CC[Si](Cl)(Cl)Cl in the assay.
No

====

- Experimental System: Myc proto-oncogene protein (Homo sapiens)
- Test Method Notes: ATG_Myc_CIS: Attagene CIS-FACTORIAL HepG2 Assay for human Myelocytomatosis (Myc) Proto-Oncogene Transcription Factor (AID 2282990)
- Applied Conditions: HepG2, Attagene cis-reporter transcription factor activity; actives raise or lower the signal
- Procedure: ATG_CIS is a cell-based, multiplexed-readout assay that uses HepG2, a human liver cell line, with measurements taken at 24 hours after chemical dosing in a 24-well plate.ATG_Myc_CIS is one of 52 assay component(s) measured or calculated from the ATG_CIS assay. […] This assay endpoint, ATG_Myc_CIS, was analyzed with bidirectional fitting relative to DMSO as the negative control and baseline of activity. […]
The source made the active and inactive calls. The calls were made as follows: active = hit-call score of the fitted dose curve at least 0.9, where 1 is the maximum; inactive = score below 0.9.
Assay Endpoint: outcome

Check out these entries, answers already filled in.
For reference, reported outcome for OCCCCl stands at inactive

Cc1ccc2c(c1)OCC(=O)CO2 has a reported outcome of inactive

Sample Cc1ccc([N+](=O)[O-])c(C)c1 ; outcome observed: inactive

Data point: OCC(O)CC(F)(F)C(F)(F)C(F)(F)C(F)(F)F (configuration not stated) ; outcome = inactive

Looking up O=C(Cl)C(F)(F)C(F)(F)C(F)(F)C(F)(F)C(F)(F)C(F)(F)C(F)(F)F , I see its outcome listed as inactive

Next:
According to the records, this compound CC(C)CC=C(C=O)c1ccccc1 displays outcome of inactive

So, CCOCN(C(=O)CS(=O)(=O)O)c1c(C)cccc1CC ? Its outcome was inactive

Value of measured outcome for the entry CCn1c2ccccc2c2ccccc21 : inactive

Input CCCCOC(=O)C(C)O (configuration not stated) . Output outcome: inactive

Note to self: outcome recorded for CCCCCCCCCCCC(=O)Cl was inactive

GET /value?item= CCCCCCCCCCCCC[N+](C)(C)Cc1ccccc1 &field=outcome returns inactive

COCCOCCC[Si](C)(O[Si](C)(C)C)O[Si](C)(C)C yielded outcome of inactive

====

- Test Method Notes: ATG_XTT_Cytotoxicity: Cytotoxicity Assessment in the Attagene TRANS-FACTORIAL HepG2 Assay (AID 2283584)
Results filed as inconclusive are left out. Calls of active or inactive are those of the source. The calls were made as follows: active = hit-call score of the fitted dose curve at least 0.9, where 1 is the maximum; inconclusive = response in the unintended direction; inactive = score below 0.9.
Give your call using only these classes: active, inactive

Record excerpt, results attached:
Outcome logged for CC(C)OC(=O)COc1ccc(Cl)cc1Cl in this assay:
inactive

Can you look up the reported call for CCN(CC)c1ccc(C=O)c(O)c1 for me?
inactive

More entries:
Could you kindly confirm the outcome this assay logged for O=C1OC(=O)c2ccc3c4c(ccc1c24)C(=O)OC3=O ?
inactive

Given CCCCCCCCCCCCC[N+](C)(C)Cc1ccccc1 , state the outcome it received in this test.
active

====

- Read-out: Interleukin-8 (IL8), CXCL8 (gene 3576)
- Test Method Notes: BSK_SAg_IL8: BioMAP Diversity Plus: SAg Assay for Interleukin-8 (IL8) Biomarker Activity (AID 2283094)
- Applied Conditions: primary human HUVEC with PBMC; actives raise or lower the signal
- Procedure: BSK_SAg is a cell-based, multiplexed-readout assay that uses umbilical vein endothelium and peripheral blood mononuclear cells, a human vascular primary cell co-culture, with measurements taken at 24 hours after chemical dosing in a 96-well plate.BSK_SAg_IL8 is an assay component measured in the BSK_SAg assay. It measures IL-8 antibody related to regulation of gene expression using ELISA technology.Data from the assay component BSK_SAg_IL8 was analyzed into 1 assay endpoint. […]
Activity calls are given as the source filed them. Rule for the calls: active = hit-call score of the fitted dose curve at least 0.9, where 1 is the maximum; inactive = score below 0.9.
// classify into active, inactive

Use the examples below as a reference point.
Hi team, can someone confirm the assay call for CCN(CC)c1ccc(N=Nc2ccccc2)cc1 ?
active

Could you check what this test reported for FC(F)(F)C(F)(F)C(F)(F)C(F)(F)C(F)(F)C(F)(F)C(F)(F)CCI ?
inactive

Tell me the assay call for NC(=O)C(F)(F)C(F)(F)C(F)(F)C(F)F please.
inactive

Now look at this entry.
How was CO[Si](C)(CCC(F)(F)C(F)(F)C(F)(F)C(F)(F)C(F)(F)C(F)(F)F)OC classified in this test?
inactive
